# test details: Stability in cryopreserved hepatocytes, rat
# Description: Mixed-gender human cryopreserved hepatocytes, male Sprague-Dawley rat cryopreserved hepatocytes, and male Beagle dog cryopreserved hepatocytes were purchased from XenoTech. […] An aliquot of the supernatant was then diluted with water and analyzed by LC-MS/MS against calibration standards prepared in a matched matrix. […] All test article samples were analyzed for the dosed prodrugs as well as the drug, treprostinil. […]
# if value of Trep Concentration (μM) 30 min reaches 0.3 µM, tag criterion met; if it stays below, tag criterion not met

compound: CCCCCC(CCC1C(O)CC2Cc3c(cccc3OCC(=O)O)CC21)OC(=O)c1ccc(C)cc1 (centres unmarked) [XLVIII]
assigned label: criterion not met

compound: CCCCCC(CCC1C(O)CC2Cc3c(cccc3OCC(=O)O)CC21)OC(=O)N1CCC(O)CC1 (centres unmarked) [LVIII]
assigned label: criterion not met

compound: CCCCCC(CCC1C(O)CC2Cc3c(cccc3OCC(=O)O)CC21)OCC(=O)O (centres unmarked) [LVII]
assigned label: criterion not met

compound: CCCCCC(CCC1C(O)CC2Cc3c(cccc3OCC(=O)O)CC21)OC(=O)CCN (centres unmarked) [XXXVII]
assigned label: criterion not met

compound: CCCCCC(CCC1C(O)CC2Cc3c(cccc3OCC(=O)O)CC21)OC(=O)COc1ccc(O)cc1 (centres unmarked) [LIV]
assigned label: criterion met

compound: CCCCCC(CCC1C(O)CC2Cc3c(cccc3OCC(=O)O)CC21)OCc1oc(=O)oc1C (centres unmarked) [LI]
assigned label: criterion met

compound: CCCCCC(CCC1C(OC(=O)CC)CC2Cc3c(cccc3OCC(=O)O)CC21)OC(=O)CC (centres unmarked) [Prodrug LXX, treprostinil dipropionate]
assigned label: criterion met

* * *

# test details: Stability in cryopreserved hepatocytes, human
Hi! Just check whether Trep Concentration (μM) 120 min is below 0.3 µM. Below gives class 1, equal or above gives class 0.

compound: CCCCC[C@H]1CC[C@@H]2[C@H]3Cc4cccc(OCC(=O)O)c4C[C@H]3C[C@H]2OC(=O)O1
assigned label: class 0

compound: CCCCCC1CCC2C(CC3Cc4c(cccc4OCC(=O)O)CC32)OP(=O)(Oc2ccccc2)O1 (mixture of isomers)
assigned label: class 1

compound: CCCCCC(CCC1C(O)CC2Cc3c(cccc3OCC(=O)O)CC21)OCC(=O)O (centres unmarked)
assigned label: class 1

compound: CCCCCC(CCC1C(O)CC2Cc3c(cccc3OCC(=O)O)CC21)OC(=O)COc1ccc(OC(F)(F)F)cc1 (centres unmarked)
assigned label: class 0

compound: CCCCCC(CCC1C(O)CC2Cc3c(cccc3OCC(=O)O)CC21)OC(=O)C(C)C (centres unmarked)
assigned label: class 0

compound: CCCCCC(CCC1C(O)CC2Cc3c(cccc3OCC(=O)O)CC21)OC(=O)CCC(=O)N1CCOCC1 (centres unmarked)
assigned label: class 1

compound: CCCCCC(CCC1C(O)CC2Cc3c(cccc3OCC(=O)O)CC21)OC(=O)N1CCC(O)CC1 (centres unmarked)
assigned label: class 1

compound: CCCCCC(CCC1C(O)CC2Cc3c(cccc3OCC(=O)O)CC21)OC(=O)C12CC3CC(CC(C3)C1)C2 (centres unmarked)
assigned label: class 0

* * *

Trep Concentration 0 min: recorded values
# test details: Stability in liver microsomes, rat
recorded endpoint: Trep Concentration 0 min (µM)

molecule: CCCCCC(CCC1C(O)CC2Cc3c(cccc3OCC(=O)O)CC21)OC(=O)NCCO (centres unmarked)
recorded endpoint: Trep Concentration 0 min
scale unit: µM
value measured: 0

molecule: CCCCCC(CCC1C(O)CC2Cc3c(cccc3OCC(=O)O)CC21)OC(=O)c1ccc(C)cc1 (centres unmarked)
recorded endpoint: Trep Concentration 0 min
scale unit: µM
value measured: 0.0583

molecule: CCCCCC(CCC1C(O)CC2Cc3c(cccc3OCC(=O)O)CC21)OC(=O)COc1ccccc1 (centres unmarked)
recorded endpoint: Trep Concentration 0 min
scale unit: µM
value measured: 0.889

molecule: CCCCCC(CCC1C(O)CC2Cc3c(cccc3OCC(=O)O)CC21)OC(=O)C(C)N (centres unmarked)
recorded endpoint: Trep Concentration 0 min
scale unit: µM
value measured: 0.00504

molecule: CCCCCC(CCC1C(O)CC2Cc3c(cccc3OCC(=O)O)CC21)OC(=O)COc1ccc(O)cc1 (centres unmarked)
recorded endpoint: Trep Concentration 0 min
scale unit: µM
value measured: 0.849

molecule: CCCCCC1CCC2C(CC3Cc4c(cccc4OCC(=O)O)CC32)OP(=O)(Oc2ccccc2)O1 (mixture of isomers)
recorded endpoint: Trep Concentration 0 min
scale unit: µM
value measured: 0

molecule: CCCCCC(CCC1C(O)CC2Cc3c(cccc3OCC(=O)O)CC21)OP(=O)(O)O (centres unmarked)
recorded endpoint: Trep Concentration 0 min
scale unit: µM
value measured: 0.27

molecule: CCCCCC(CCC1C(O)CC2Cc3c(cccc3OCC(=O)O)CC21)Oc1ccccc1C(=O)O (centres unmarked)
recorded endpoint: Trep Concentration 0 min
scale unit: µM
value measured: 0
